# Assay type: physicochemical
# assay.context: 500 ppm standard, 400 minutes
# Description: HPLC sample standards were prepared by dissolving KLG, MeKLG, ascorbic acid (ASA), and butyl-KLG to the appropriate concentration in water. Samples of these standards were placed in filled and sealed vials, stored at room temperature, and analyzed periodically. The HPLC was calibrated on the area response for standards that were injected onto the HPLC as soon as possible after the preparation of the standards.

{"molecule": "O=C(O)C(=O)[C@@H](O)[C@H](O)[C@@H](O)CO", "Amount Found [ppm]": 479}
{"molecule": "CCCCOC(=O)C(=O)[C@@H](O)[C@H](O)[C@@H](O)CO [butyl-KLG, butyl 2-keto-L-gulonate]", "Amount Found [ppm]": 512}
{"molecule": "COC(=O)C(=O)[C@@H](O)[C@H](O)[C@@H](O)CO [MeKLG, methyl-2-keto-L-gulonate]", "Amount Found [ppm]": 496}
{"molecule": "O=C1O[C@H]([C@@H](O)CO)C(O)=C1O", "Amount Found [ppm]": 487}

---

# Type: physicochemical
# assay.context: 50 ppm standard, 400 minutes
The following compounds are shown together with reported Amount Found values.

{"compound": "CCCCOC(=O)C(=O)[C@@H](O)[C@H](O)[C@@H](O)CO [butyl-KLG, butyl 2-keto-L-gulonate]", "Amount Found [ppm]": 42.7}
{"compound": "COC(=O)C(=O)[C@@H](O)[C@H](O)[C@@H](O)CO [MeKLG, methyl-2-keto-L-gulonate]", "Amount Found [ppm]": 47.7}
{"compound": "O=C1O[C@H]([C@@H](O)CO)C(O)=C1O [ASA, ascorbic acid]", "Amount Found [ppm]": 28.3}
{"compound": "O=C(O)C(=O)[C@@H](O)[C@H](O)[C@@H](O)CO [KLG, 2-keto-L-gulonic acid]", "Amount Found [ppm]": 39.9}

---

# assay.explanation: solubility of butyl-KLG in water
# Type: physicochemical
endpoint.name: solubility

{"compound": "CCCCOC(=O)C(=O)[C@@H](O)[C@H](O)[C@@H](O)CO [butyl-KLG, butyl 2-keto-L-gulonate]", "value.observed": "≥ 500 mg/mL"}
